Values compiled from PubChem BioAssay AID179.

Quick reference: pIC50 of the listed items.
# Test system: CEM cells HIV-1 protection, formazan growth assay
# TEST NAME: NCI AIDS Antiviral Assay
# CONDITION: measured here: growth of uninfected CEM cells
pIC50: −log10 of the molar value.

Q: Consider the compound O=c1c([Se]c2coc3ccccc3c2=O)coc2ccccc12 . State its measured pIC50.
Result: < 4.99

Q: Consider the compound O=[N+]([O-])[O-].O=[N+]([O-])[O-].[Au].[Au].c1ccc([P-]c2ccccc2)cc1.c1ccc([P-]c2ccccc2)cc1 . State its measured pIC50.
Result: < 5.37

Please look at the following compound next.
Q: Consider the compound COc1ccc(C(=O)C/C(=N/NC(N)=S)C(=O)Nc2ccccc2)cc1 . State its measured pIC50.
Result: < 4.60
